- Tested on: L1 wild-type C. elegans
- experimental_context: drug + KCN, 12.5 µM, 15-hour, mean of replicates
measure: KCN survival assay value relative to DMSO control, Mean

# compound, assay_value
rows = [
    ("Cc1cc(C(C#N)c2ccc(Cl)cc2)c(Cl)cc1NC(=O)c1cc(I)cc(I)c1O (stereo not shown) [Closantel]", 0.0065),
    ("O=C(Nc1ccc([N+](=O)[O-])cc1Cl)c1cc(Cl)ccc1O [Niclosamide]", 0.0056),
    ("O=C(Nc1cc(Cl)cc(Cl)c1O)c1c(O)c(Cl)cc(Cl)c1Cl [Oxyclozanide]", 0.0006),
    ("O=C(Nc1ccc(Oc2ccc(Cl)cc2)c(Cl)c1)c1cc(I)cc(I)c1O [Rafoxanide]", 0.000),
]
